Where do these numbers come from? They come from ChEMBL document CHEMBL5331136.

experiment: Metabolic stability in human liver S9 fraction assessed as parent compound remaining at 10 uM measured after 120 mins in presence of NADPH by LC-MS/MS analysis; format: ADME, subcellular; conditions: liver S9 fraction, read-out: Stability
value.kind: remaining at 2 h, 10 µM (%)
Give a bare numeral; the unit % is implied.

The following molecules have reported results that may help.
- O=C(O)c1ncn2c1C1(CC1)N=C(c1ccccc1F)c1cc(C3CC3)ccc1-2: 107
- C#Cc1ccc2c(c1)C(c1ccccc1F)=NC1(CC1)c1c(C(=O)O)ncn1-2: 106
- O=C(O)c1ncn2c1C1(CC1)N=C(c1ccccc1F)c1cc(Cl)ccc1-2: 103
- O=C(O)c1ncn2c1C1(CC1)N=C(c1ccccc1F)c1cc(Br)ccc1-2: 104

Below: the item to evaluate.
**Query** Look at this molecule and give its reported remaining at 2 h, 10 µM. `O=C(O)c1ncn2c1C1(CC1)N=C(c1ccccc1F)c1ccccc1-2`
**Result** 106
